FYI, the data here is from the supplement of paper PMC6555819.

System: RARg homodimer (NR concentration 270 nM)
Test: PBM binding z-score (relative to random genomic background probes); higher = stronger binding; sequences stand for … in GC…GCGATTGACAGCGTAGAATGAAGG
Label scheme for PBM binding z-score: lower than 0.8 is N, 0.8 and above is Y.

Determine whether this sequence has PBM binding z-score no lower than 0.8: `TCTGCTAGATCAGTTGGTCAGCTAACGAGCTGCC`
N

Determine whether this sequence has PBM binding z-score no lower than 0.8: `AGAATGAGGTAATTAAGATCAGGGAATTGCGGTC`
N

Determine whether this sequence has PBM binding z-score no lower than 0.8: `ATCTCTAGGTAAACATAGTTCAGTGAATGCAAAT`
Y

Determine whether this sequence has PBM binding z-score no lower than 0.8: `CCTACTGGGCCATTCAGAGGTCATGGATCATATG`
Y

Determine whether this sequence has PBM binding z-score no lower than 0.8: `CGAACTAGGTCATAACAGGACAGTGAAGGATGAT`
Y

Determine whether this sequence has PBM binding z-score no lower than 0.8: `TAGCCTAGGTCGGATCGGGCCAGTATACGCTATA`
N

Determine whether this sequence has PBM binding z-score no lower than 0.8: `TCTTGTAGATCAATAGAGGTTAAGAATGTGCGCT`
N

Determine whether this sequence has PBM binding z-score no lower than 0.8: `TCTAGTAGATCAAGCAGGTTAAGAAAGCCTGAGT`
N

Determine whether this sequence has PBM binding z-score no lower than 0.8: `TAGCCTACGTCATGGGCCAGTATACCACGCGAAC`
N

Determine whether this sequence has PBM binding z-score no lower than 0.8: `TCTTGTAGATCAACAGGAGGTTAAGACAGATCGA`
N

Determine whether this sequence has PBM binding z-score no lower than 0.8: `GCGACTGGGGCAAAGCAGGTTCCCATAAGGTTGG`
N

Determine whether this sequence has PBM binding z-score no lower than 0.8: `CCTAGCAGGCCACTCTGGGTCACTCAAGGCTTGA`
Y

Determine whether this sequence has PBM binding z-score no lower than 0.8: `CCGACTGGGGCACAAGGTTACCATAAGCCAGCCC`
Y

Determine whether this sequence has PBM binding z-score no lower than 0.8: `GCGACTGCGGCATCAGCAGGTTACCATAACTTAA`
N

Determine whether this sequence has PBM binding z-score no lower than 0.8: `TCGTATAGGTAAACAGGTGAAAGTCCGTAAGTTA`
N

Determine whether this sequence has PBM binding z-score no lower than 0.8: `TCGAGTAGGATACCAATGGGGCATTCAGCTTTCT`
N

Determine whether this sequence has PBM binding z-score no lower than 0.8: `TTTGCTAGGTCAACGATGGTCAGCTAATCTGCTA`
Y

Determine whether this sequence has PBM binding z-score no lower than 0.8: `CGTCCAAGGTCAGAGAGGGCAGTGAATGCCGAGT`
Y

Determine whether this sequence has PBM binding z-score no lower than 0.8: `CGTCAAAGTTCAACTAAGATAACGTAAAGCACGC`
Y

Determine whether this sequence has PBM binding z-score no lower than 0.8: `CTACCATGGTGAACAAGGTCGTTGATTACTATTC`
N

Determine whether this sequence has PBM binding z-score no lower than 0.8: `CCGACTGGGGCATAGGTTACCATACTCAGTACGA`
Y

Determine whether this sequence has PBM binding z-score no lower than 0.8: `GCGCCTGGGGCATCAGCAGGTTACCATAACTTAA`
N

Determine whether this sequence has PBM binding z-score no lower than 0.8: `TTACCAAGGTGAAATGTCGTTGATGCACGCCTTG`
N

Determine whether this sequence has PBM binding z-score no lower than 0.8: `TCTTGTATATCAGCAGGTTAAGAAAGCTGGCCAA`
N

Determine whether this sequence has PBM binding z-score no lower than 0.8: `CCGACTGGGGCATAAGGTAACCATAAGCCAGCCC`
N

Determine whether this sequence has PBM binding z-score no lower than 0.8: `TCTCGGAGGACATGAAAGGTCAGAGCTCGACATC`
Y
